Measured IC50 values are reported for all entries that follow.
Molecular target: full-length SARM1 (FL-SARM1) (Homo sapiens)
Assay: FL-SARM1 cellular lysate assay (NAD/NADH-Glo detection of remaining NAD+, NMN-activated)
Conditions: read-out: Activity (IC50 class), 11 point curve

| cpd-smiles | IC50 |
| --- | --- |
| CCc1ccc(-c2cc(NC(=O)N3C4C[C@@H](C)C[C@H]3C4)ccc2C)nn1 | 0.1 to 1000 nM |
| Cc1ccc(NC(=O)N2C[C@@H]3C[C@H]2CN3c2ccccc2)cc1-c1ccccn1 | 0.1 to 1000 nM |
| CCc1ccc(NC(=O)N2C3CCCC2C3)cc1-c1ccccn1 | 0.1 to 1000 nM |
| Cc1ccc(NC(=O)N2[C@@H]3C[C@@H](F)C[C@H]2C3)cc1-c1ccccn1 | 0.1 to 1000 nM |

* * *

Each entry below carries its reported log10 of IC50.
Biological target: full-length SARM1 (FL-SARM1) (Homo sapiens)
Sequence (Q6SZW1 28-724): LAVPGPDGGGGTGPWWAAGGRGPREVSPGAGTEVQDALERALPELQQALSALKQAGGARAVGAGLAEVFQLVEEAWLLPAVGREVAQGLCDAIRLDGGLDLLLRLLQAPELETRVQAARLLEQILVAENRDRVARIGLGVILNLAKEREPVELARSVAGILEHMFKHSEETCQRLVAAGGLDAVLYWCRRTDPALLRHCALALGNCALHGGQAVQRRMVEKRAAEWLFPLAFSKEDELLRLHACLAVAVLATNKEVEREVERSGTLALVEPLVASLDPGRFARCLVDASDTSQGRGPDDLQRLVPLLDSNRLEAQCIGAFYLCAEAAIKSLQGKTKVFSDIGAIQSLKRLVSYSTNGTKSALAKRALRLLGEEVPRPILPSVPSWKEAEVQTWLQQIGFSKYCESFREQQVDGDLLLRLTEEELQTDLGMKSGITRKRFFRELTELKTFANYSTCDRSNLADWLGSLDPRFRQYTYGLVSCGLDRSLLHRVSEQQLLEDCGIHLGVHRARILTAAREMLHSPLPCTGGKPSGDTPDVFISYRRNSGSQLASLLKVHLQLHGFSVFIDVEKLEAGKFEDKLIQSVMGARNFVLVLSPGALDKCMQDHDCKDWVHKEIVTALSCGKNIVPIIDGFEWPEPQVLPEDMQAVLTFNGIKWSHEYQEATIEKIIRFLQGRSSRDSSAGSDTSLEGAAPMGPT
Test: FL-SARM1 cellular lysate assay (NAD/NADH-Glo detection of remaining NAD+, NMN-activated)
Details: Activity (μM) (IC50), 11 point curve
result-type: log10 of IC50 (log10 of the value in µM)

| compound | log10 of IC50 |
| --- | --- |
| Cc1ccc(NC(=O)OCCc2ccccc2)cc1-c1ncccn1 | 0.63 |
| Cc1c(-c2ncc(F)cn2)cc(NC(=O)N2C3CCCC2C3)c(F)c1F | 0.18 |
| Cc1ccc(NC(=O)[C@@H]2C[C@H]3C[C@H]32)cc1-c1ccccn1 (racemic) | 0.87 |
| Cc1ccc(NC(=O)N2CCOCCC2C)cc1-c1ncc(F)cn1 (racemic) | 1.51 |
| O=C(Nc1ccc(C(F)(F)F)c(-c2ccc(F)cn2)c1)N1C2CCC1c1ccccc12 | 0.57 |
| Cc1ccc(NC(=O)C2CC3CCC2C3)cc1-c1ccccn1 (centres unmarked) | -0.70 |
| Cc1ccc(NC(=O)N2[C@@H]3C[C@@H](C)C[C@@]2(COC(F)F)C3)cc1-c1ncc(F)cn1 (racemic) | -1.70 |
| Cc1ccc(NC(=O)C2C3CCC2C3)cc1-c1ccccn1 (centres unmarked) | -0.52 |

Every entry's value here was drawn from patent US20250171462A1.
